test: modulators of HCV replicon luciferase signal, primary screen, HCV replication inhibitor project, Huh7 cells, luciferase reporter (AID 1109); conditions: 48 h, higher = more signal;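 also: huh7 hepatoma cells harbouring a luciferase neomycin HCV replicon reporter; luciferase luminescence as measure of HCV replicon replication; test concentration not given here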
Classification field: YES = z-score at or over -2; NO = z-score under -2.

[in] Given the entry CN(C)C(=O)[C@@]1(Cc2ccccc2CN=[N+]=[N-])N=C(c2ccc(OCCCO)cc2)O[C@H]1c1ccccc1 , answer whether its z-score meets or surpasses -2.
[out] NO

[in] Would you mind doing CN1C(=O)C2C=CC(C(O)c3ccc(I)cc3)N(N3CCCCC3)C2C1=O (configuration not stated) as well?
[out] YES

[in] Would you mind doing C#CCN(CC1=CCCCC1)[C@H](c1ccccc1Br)[C@@H](O)Cc1ccccc1 as well?
[out] NO

[in] Would you mind doing CN(C)CCCNC(=O)[C@@]1(C)c2ccccc2C(=O)N(Cc2cc(F)cc(C(F)(F)F)c2)[C@H]1c1ccc(CO)cc1 as well?
[out] YES

[in] Would you mind doing CC1CC/C=C\[C@H]2OC34C=CCN(C(C)(C)C)C(=O)[C@H]3N(CCCCCCO)C(=O)[C@@H]4C2C(=O)O1 (some centres not stated) as well?
[out] YES

[in] Would you mind doing COc1cc2c(cc1O)C(C1CC1)N(Cc1cc3c(cc1Br)OCO3)CC2 (configuration not stated) as well?
[out] NO

[in] Would you mind doing CCCC#C[Si](O[C@H](CC)c1cn([C@H](CO)Cc2ccccc2)nn1)(C(C)C)C(C)C as well?
[out] YES
